molecular target: Mu-type opioid receptor (Rattus norvegicus, UniProt P33535); test: Affinity for mu opioid receptor was measured by displacement of tritiated DAMGO from rat brain membranes; format: cell membranes, Membrane
Sequence (P33535 whole entry): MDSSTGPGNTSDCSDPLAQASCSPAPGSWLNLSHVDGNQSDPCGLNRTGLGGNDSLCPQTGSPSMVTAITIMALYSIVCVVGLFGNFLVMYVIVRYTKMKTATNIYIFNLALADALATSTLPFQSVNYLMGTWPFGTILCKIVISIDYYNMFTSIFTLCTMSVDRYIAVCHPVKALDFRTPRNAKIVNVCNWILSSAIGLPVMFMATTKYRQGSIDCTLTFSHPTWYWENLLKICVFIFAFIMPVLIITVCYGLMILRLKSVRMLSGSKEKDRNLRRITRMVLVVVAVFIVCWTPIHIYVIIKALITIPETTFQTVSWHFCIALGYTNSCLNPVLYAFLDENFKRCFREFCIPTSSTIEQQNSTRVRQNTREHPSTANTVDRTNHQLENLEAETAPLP
measurementName: IC50
Record the result as a number with its unit.

Please list IC50 recorded for the compound Cc1cc(O)cc(C)c1CC(C)(N)C(=O)N[C@H](C)C(=O)NCCCc1ccccc1 (stereo not given in full)
2 nM

Output IC50 of Cc1cc(OCc2ccc(C(=O)O)cc2)cc(C)c1CC(N)C(=O)N[C@H](C)C(=O)NCCCc1ccccc1 (stereo not given in full)
12.3 nM

Look up IC50 of Cc1cc(OCc2ccccc2)cc(C)c1C[C@H](N)C(=O)N[C@H](C)C(=O)NCCCc1ccccc1 and report it.
4 nM

Respond only with IC50 recorded for Cc1cc(OCc2ccc([N+](=O)[O-])cc2)cc(C)c1CC(N)C(=O)N[C@H](C)C(=O)NCCCc1ccccc1 (stereo not given in full)
3.5 nM

Read off the recorded IC50 for Cc1cc(OCc2ccc(F)cc2)cc(C)c1CC(N)C(=O)N[C@H](C)C(=O)NCCCc1ccccc1 (stereo not given in full)
17.5 nM
